- PROTOCOL_TEXT: Plasma pharmacokinetics of CR665 after single IV infusion in human subjects
- MEASUREMENT_CONTEXT: male, human, plasma, iv, 0.09 mg/kg, AUC0-∞, males, 5-minute IV infusion, geometric mean
Where a name gives a salt, the structure may show the parent alone. Non-standard residues stand in square brackets, D forms with d. Residues, ends and D or L forms follow the SMILES beside them. *: point of attachment. NH(4-picolyl) = c1cc(CN*)ccn1; dNle = CCCC[C@@H](N)C(=O)O
METRIC_NAME: AUC(0-inf) (ng·h/mL)
Answer with a number only, understood to be in ng·h/mL.

**Q:** Report measured AUC(0-inf); entry is CCCC[C@@H](NC(=O)[C@@H](Cc1ccccc1)NC(=O)[C@H](N)Cc1ccccc1)C(=O)N[C@H](CCCNC(=N)N)C(=O)NCc1ccncc1 [CR665, acetate salt] (H-[dF][dF][dNle][dR]-{NH(4-picolyl)})
**A:** 213

The reported measurements were obtained from patent US8217000B2.
